// provenance: paper PMC11945486

Molecular target: human TAS1R2-WT/TAS1R3-F749S (Homo sapiens, UniProt Q7RTX0+Q8TE23, F749S)
Construct: expressed in transfected cells; host or cells: HEK293T stably expressing Gα16gust44
Sequence (Q8TE23 20-839): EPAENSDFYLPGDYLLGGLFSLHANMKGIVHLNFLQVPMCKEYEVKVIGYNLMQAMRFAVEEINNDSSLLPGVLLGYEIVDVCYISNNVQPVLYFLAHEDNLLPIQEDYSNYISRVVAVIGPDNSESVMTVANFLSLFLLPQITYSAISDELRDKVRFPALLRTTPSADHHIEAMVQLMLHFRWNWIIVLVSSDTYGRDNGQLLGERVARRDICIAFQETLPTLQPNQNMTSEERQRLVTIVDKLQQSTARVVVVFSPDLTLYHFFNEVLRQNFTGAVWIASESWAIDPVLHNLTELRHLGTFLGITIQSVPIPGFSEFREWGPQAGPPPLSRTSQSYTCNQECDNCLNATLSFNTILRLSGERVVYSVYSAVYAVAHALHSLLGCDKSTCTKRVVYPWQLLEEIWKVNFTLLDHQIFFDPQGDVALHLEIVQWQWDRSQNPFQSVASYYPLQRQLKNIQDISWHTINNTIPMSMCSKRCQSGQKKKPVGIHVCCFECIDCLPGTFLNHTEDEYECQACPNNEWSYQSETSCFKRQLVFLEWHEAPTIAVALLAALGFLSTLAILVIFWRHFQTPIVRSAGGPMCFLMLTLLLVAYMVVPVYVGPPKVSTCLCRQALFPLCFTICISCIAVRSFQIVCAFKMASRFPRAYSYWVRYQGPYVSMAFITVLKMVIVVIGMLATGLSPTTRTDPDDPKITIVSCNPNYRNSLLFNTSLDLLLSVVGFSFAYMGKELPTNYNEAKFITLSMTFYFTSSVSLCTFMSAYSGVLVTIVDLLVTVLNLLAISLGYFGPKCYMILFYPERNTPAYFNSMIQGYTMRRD
Sequence (Q7RTX0 21-852 F749S): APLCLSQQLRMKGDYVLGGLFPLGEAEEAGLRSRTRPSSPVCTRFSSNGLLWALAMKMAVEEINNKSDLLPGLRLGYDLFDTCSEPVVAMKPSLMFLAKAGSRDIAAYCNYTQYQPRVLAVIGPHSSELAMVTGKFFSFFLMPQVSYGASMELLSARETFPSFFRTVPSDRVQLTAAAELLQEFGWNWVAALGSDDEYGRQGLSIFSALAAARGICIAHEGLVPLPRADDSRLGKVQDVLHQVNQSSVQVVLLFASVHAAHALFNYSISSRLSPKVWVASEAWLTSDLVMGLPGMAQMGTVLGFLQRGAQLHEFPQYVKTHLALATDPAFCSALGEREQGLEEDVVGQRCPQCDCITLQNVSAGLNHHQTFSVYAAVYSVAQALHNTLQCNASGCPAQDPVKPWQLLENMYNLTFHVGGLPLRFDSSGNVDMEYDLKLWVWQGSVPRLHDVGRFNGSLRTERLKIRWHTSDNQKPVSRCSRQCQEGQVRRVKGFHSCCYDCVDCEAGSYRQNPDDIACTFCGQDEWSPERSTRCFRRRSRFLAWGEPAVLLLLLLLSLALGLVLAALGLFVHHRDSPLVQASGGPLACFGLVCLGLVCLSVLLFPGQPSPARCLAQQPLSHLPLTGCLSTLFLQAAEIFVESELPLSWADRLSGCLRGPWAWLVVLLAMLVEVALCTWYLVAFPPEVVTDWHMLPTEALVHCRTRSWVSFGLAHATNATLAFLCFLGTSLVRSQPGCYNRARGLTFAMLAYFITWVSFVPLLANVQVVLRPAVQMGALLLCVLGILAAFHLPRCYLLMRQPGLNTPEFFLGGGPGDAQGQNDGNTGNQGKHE
Test: Calcium mobilisation assay, TAS1R2-WT with TAS1R3 variant F749S
Assay type: cell-based
Conditions: maximal signal amplitude
endpointLabel: Max ΔF/F0

1. C=C(C)[C@@H]1CC=C(/C=N/O)CC1 [Perillartine, perillartine]
2. OC[C@H]1O[C@H](O[C@]2(CCl)O[C@H](CCl)[C@@H](O)[C@@H]2O)[C@H](O)[C@@H](O)[C@H]1Cl [Sucralose]
3. COc1ccc(CCC(=O)c2c(O)cc(O[C@@H]3O[C@H](CO)[C@@H](O)[C@H](O)[C@H]3O[C@@H]3O[C@@H](C)[C@H](O)[C@@H](O)[C@H]3O)cc2O)cc1O [NHDC, neohesperidin dihydrochalcone]
Q) List the molecules shown above again, sorted by falling Max ΔF/F0 values. Returns: the labels listed in the requested order.
A) 1, 3, 2
(1: 1.90, 3: 0.29, 2: 0.18)

a. COC(=O)[C@H](Cc1ccccc1)NC(=O)[C@H](CC(=O)O)NCCC(C)(C)C [Neotame]
b. CC1=CC(=O)NS(=O)(=O)O1 [Acesulfame K, acesulfame K]
Q) Which of the two items, a and b , has the greater recorded Max ΔF/F0? Let me know the label of the one you choose.
A) a

====

target: human TAS1R2-C9S (subunit alone) (Homo sapiens); assay: Calcium mobilisation assay, TAS1R2-C9S subunit alone
endpointLabel: pEC50
Please express pEC50 as -log10 of the molar concentration.

Value of pEC50 reported for the compound C=C(C)[C@@H]1CC=C(/C=N/O)CC1 is 3.72

====

target: human TAS1R2-WT/TAS1R3-R247H (Homo sapiens, UniProt Q7RTX0+Q8TE23, R247H); construct: expressed in transfected cells; host or cells: HEK293T stably expressing Gα16gust44; test: Calcium mobilisation assay, TAS1R2-WT with TAS1R3 variant R247H; assay type: cell-based; conditions: maximal signal amplitude
Examples of compounds with documented Max ΔF/F0 follow.
Answer with a bare number; do not write a unit.

>>> numericvalue("COc1ccc(CCC(=O)c2c(O)cc(O[C@@H]3O[C@H](CO)[C@@H](O)[C@H](O)[C@H]3O[C@@H]3O[C@@H](C)[C@H](O)[C@@H](O)[C@H]3O)cc2O)cc1O [NHDC, neohesperidin dihydrochalcone]")
1.14

Please look at the following compound next.
Value of Max ΔF/F0 reported for the compound C=C1C[C@@]23CC[C@H]4[C@@](C)(CCC[C@@]4(C)C(=O)O[C@@H]4O[C@H](CO)[C@@H](O)[C@H](O[C@@H]5O[C@H](CO)[C@@H](O)[C@H](O)[C@H]5O)[C@H]4O[C@@H]4O[C@H](CO)[C@@H](O)[C@H](O)[C@H]4O)[C@@H]2CC[C@]1(O[C@@H]1O[C@H](CO)[C@@H](O)[C@H](O[C@@H]2O[C@H](CO)[C@@H](O)[C@H](O)[C@H]2O)[C@H]1O[C@@H]1O[C@H](CO)[C@@H](O)[C@H](O)[C@H]1O)C3 [Rebaudioside M, rebaudioside M] is 1.15

====

Target: human TAS1R2-R317G/TAS1R3-WT (Homo sapiens, UniProt Q7RTX0+Q8TE23, R317G)
Construct: expressed in transfected cells; host or cells: HEK293T-Gα16gust44
Sequence (Q8TE23 20-839 R317G): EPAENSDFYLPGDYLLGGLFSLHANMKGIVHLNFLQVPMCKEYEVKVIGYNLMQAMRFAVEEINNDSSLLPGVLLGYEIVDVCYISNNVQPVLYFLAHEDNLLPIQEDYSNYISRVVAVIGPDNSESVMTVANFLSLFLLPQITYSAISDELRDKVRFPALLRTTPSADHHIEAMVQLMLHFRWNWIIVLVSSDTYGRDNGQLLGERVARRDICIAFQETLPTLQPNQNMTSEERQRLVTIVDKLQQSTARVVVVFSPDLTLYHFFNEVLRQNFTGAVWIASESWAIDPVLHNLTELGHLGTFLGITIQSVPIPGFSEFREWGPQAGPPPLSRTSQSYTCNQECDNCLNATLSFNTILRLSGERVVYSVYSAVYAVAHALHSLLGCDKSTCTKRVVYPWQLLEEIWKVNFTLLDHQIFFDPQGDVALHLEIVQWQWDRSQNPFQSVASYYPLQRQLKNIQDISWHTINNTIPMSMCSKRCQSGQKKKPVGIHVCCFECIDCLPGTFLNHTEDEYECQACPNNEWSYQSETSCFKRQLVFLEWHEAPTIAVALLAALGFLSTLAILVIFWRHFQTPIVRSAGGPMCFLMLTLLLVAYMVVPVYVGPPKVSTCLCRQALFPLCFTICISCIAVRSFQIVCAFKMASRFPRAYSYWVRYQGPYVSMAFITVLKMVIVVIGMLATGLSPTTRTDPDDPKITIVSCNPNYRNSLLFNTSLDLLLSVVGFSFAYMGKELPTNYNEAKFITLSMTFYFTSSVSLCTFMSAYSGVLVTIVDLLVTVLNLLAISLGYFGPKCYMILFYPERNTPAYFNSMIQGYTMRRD
Sequence (Q7RTX0 21-852): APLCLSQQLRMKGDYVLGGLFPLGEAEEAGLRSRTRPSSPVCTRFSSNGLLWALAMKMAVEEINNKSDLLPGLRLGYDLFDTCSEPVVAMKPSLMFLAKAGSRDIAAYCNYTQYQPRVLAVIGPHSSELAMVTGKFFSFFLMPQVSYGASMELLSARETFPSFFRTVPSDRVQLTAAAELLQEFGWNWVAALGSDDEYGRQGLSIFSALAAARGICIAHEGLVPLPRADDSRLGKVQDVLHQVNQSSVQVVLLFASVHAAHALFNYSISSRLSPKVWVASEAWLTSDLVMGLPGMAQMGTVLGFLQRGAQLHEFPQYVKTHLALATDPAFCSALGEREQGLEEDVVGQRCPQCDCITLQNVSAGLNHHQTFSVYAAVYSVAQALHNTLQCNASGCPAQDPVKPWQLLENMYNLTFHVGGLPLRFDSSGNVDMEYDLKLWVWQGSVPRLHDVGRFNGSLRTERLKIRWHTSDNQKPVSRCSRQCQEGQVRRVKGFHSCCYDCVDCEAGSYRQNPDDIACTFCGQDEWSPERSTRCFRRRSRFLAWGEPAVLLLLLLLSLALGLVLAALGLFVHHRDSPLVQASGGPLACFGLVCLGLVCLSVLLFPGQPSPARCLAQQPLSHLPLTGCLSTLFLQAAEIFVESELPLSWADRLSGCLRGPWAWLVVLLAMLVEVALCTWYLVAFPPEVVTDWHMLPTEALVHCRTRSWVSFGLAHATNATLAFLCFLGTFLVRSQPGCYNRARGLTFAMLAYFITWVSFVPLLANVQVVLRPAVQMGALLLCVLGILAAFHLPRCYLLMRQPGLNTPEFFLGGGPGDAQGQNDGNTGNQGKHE
Test: Calcium mobilisation assay, TAS1R2 variant R317G with TAS1R3-WT
Assay type: cell-based
Excerpt: The coding sequences for TAS1R2 and TAS1R3 were commercially synthesised, and the human codon was optimised for expression in human cells. […] The HEK293T cells were kindly provided by Jay P. Slack (Givaudan Flavors Corporation; Cincinnati, OH, USA). […] The Ca^2+ changes were expressed as fractional changes in fluorescent light intensity: ΔF/F = (F − F0)/F0, where F was the fluorescent light intensity at each point, and F0 was the value of emitted fluorescent light prior to stimulus application. […]
endpointLabel: R1 = Variant EC50/WT EC50

>>> numericvalue("CC1=CC(=O)NS(=O)(=O)O1")
0.7
>>> numericvalue("COc1ccc(CCC(=O)c2c(O)cc(O[C@@H]3O[C@H](CO)[C@@H](O)[C@H](O)[C@H]3O[C@@H]3O[C@@H](C)[C@H](O)[C@@H](O)[C@H]3O)cc2O)cc1O [NHDC, neohesperidin dihydrochalcone]")
1.3
>>> numericvalue("C=C1C[C@@]23CC[C@H]4[C@@](C)(CCC[C@@]4(C)C(=O)O[C@@H]4O[C@H](CO)[C@@H](O)[C@H](O[C@@H]5O[C@H](CO)[C@@H](O)[C@H](O)[C@H]5O)[C@H]4O[C@@H]4O[C@H](CO)[C@@H](O)[C@H](O)[C@H]4O)[C@@H]2CC[C@]1(O[C@@H]1O[C@H](CO)[C@@H](O)[C@H](O[C@@H]2O[C@H](CO)[C@@H](O)[C@H](O)[C@H]2O)[C@H]1O[C@@H]1O[C@H](CO)[C@@H](O)[C@H](O)[C@H]1O)C3 [Rebaudioside M, rebaudioside M]")
1.2

A. C=C(C)[C@@H]1CC=C(/C=N/O)CC1
B. OC[C@H]1O[C@H](O[C@]2(CCl)O[C@H](CCl)[C@@H](O)[C@@H]2O)[C@H](O)[C@@H](O)[C@H]1Cl
Q) Lab log: flag the item ( A or B ) with the smaller R1 = Variant EC50/WT EC50 figure. Let me know the label of the one you choose.
A) B
